System: SK-MEL-28 melanoma
Assay: NCI-60 one-dose screen, 48 h (100 = growth as untreated, 0 = no growth, -100 = all killed)
Conditions: 10 µM unless noted
Compounds without any hit were thinned out: in the full panel of roughly 83,000, 20% have a hit. Calls of active or inactive are those of the source. How the source made its calls: active means growth percent below 10; inactive means the rest.
Below, each entry is listed with its recorded growth.

molecule	assayed.target	growth
O=C(Oc1ccc(CCl)cc1)c1ccccc1	SK-MEL-28 melanoma	-75.6% (active)
CC1=C(C(=O)Nc2ccccc2)C(c2ccc3c(c2)OCO3)NC(=S)N1 (configuration not stated)	SK-MEL-28 melanoma	112% (inactive)
C=C1C(=O)O[C@H]2[C@H]1CC/C(COC(=O)NCc1ccc(Cn3c(=O)sn(-c4ccc(C#N)cc4)c3=O)cc1)=C\CC[C@@]1(C)O[C@@H]21	SK-MEL-28 melanoma	87.2% (inactive)
C#CCNC(=O)[C@]1(C)CCC[C@@]2(C)[C@H]1CC=C1C=C(C(C)C)CC[C@@H]12	SK-MEL-28 melanoma	111% (inactive)
C#CC#CC#CC#CC#CC#CC#CC#CCC1OC[C@H](COC(=O)O[C@@H](C(=O)O[C@H]2C[C@@]3(O)[C@@H](OC(=O)c4ccccc4)[C@@H]4[C@]5(OC(C)=O)CO[C@@H]5C[C@H](O)[C@@]4(C)C(=O)[C@H](OC(C)=O)C(=C2C)C3(C)C)[C@@H](NC(=O)c2ccccc2)c2ccccc2)O1 (some centres not stated)	SK-MEL-28 melanoma	53.6% (inactive)

Exercise: Provide growth, recorded with SK-MEL-28 melanoma, of CCOC(=O)c1cc(C(=O)c2cc(OC)c(OC)c(OC)c2)n2ccccc12
Key: 72.3% (inactive)

Exercise: # return growth for Fc1cccc(-c2ccc3c(c2)C2(CCNCC2)CN3)c1 , test system: SK-MEL-28 melanoma
Key: 116% (inactive)

###

Tested on: HT29 colon
Assay: NCI-60 one-dose screen, 48 h (100 = growth as untreated, 0 = no growth, -100 = all killed)
Settings: 10 µM unless noted
The panel holds about 83,000 compounds, 20% with a hit somewhere; the sample as a whole holds those more often.
Parameter threshold = 70%. Response is Satisfied when growth meets or exceeds it, else Not satisfied.

// below: answered molecules
molecule	group
S=C(c1ccc2c(c1)OCO2)N1CCN(c2cccc(Cl)c2)CC1	Not satisfied
Cc1c(CN)cc(-c2ccc(Cl)cc2)n1-c1ccccc1	Satisfied
CN(C)c1ccc(/C=C(\C#N)c2cc3ccccc3[nH]2)cc1	Not satisfied

Exercise: Threshold query (growth >= 70%) on COc1cc2c(c(OC)c1OC)C(=O)CC(c1cccc(NC(=O)c3ccc(C#N)cc3)c1)O2 (stereo unspecified)
Key: Satisfied

Exercise: Decide: growth of O=c1c2ccccc2c(=O)c2c1sc1c(=O)c3ccc(O)cc3c(=O)c12 >= 70%?
Key: Not satisfied

###

This listing pairs molecules with measured growth.
Test system: UACC-257 melanoma
Assay: NCI-60 one-dose screen, 48 h (100 = growth as untreated, 0 = no growth, -100 = all killed)
Settings: 10 µM unless noted
The panel holds about 83,000 compounds, 20% with a hit somewhere; the sample as a whole holds those more often.
Answer in %, number only, no unit symbol.

Recorded growth, per entry:
molecule	growth [%]
O=C(NC1CC(F)C1)c1cc2cccnc2n1-c1ccc(Cl)c(Cl)c1 (stereo not given)	96.9
CCN1CCN(CC(=O)Nc2nc3ccc(NCc4ccc(F)cc4)cc3s2)CC1	108
O=C1c2cccc3cccc(c23)C(=O)N1C/C=C/c1ccc2c3c(cccc13)C(=O)N(CCO)C2=O	79.8
Cc1ccc(Cl)cc1NC(=O)c1sc2nc3c(cc2c1N)C(=O)CCC3	44.9

For the next question, use this molecule.
Exercise: Give measured growth for O=C(CCl)NNc1nccc(Nc2ccc(S(=O)(=O)Nc3ccncc3)cc2)n1 (UACC-257 melanoma).
Key: 52.1
